Biological target: human CB2 receptor (hCB2) (Homo sapiens)
Construct: host or cells: CHO-K1
Sequence (P34972 whole entry): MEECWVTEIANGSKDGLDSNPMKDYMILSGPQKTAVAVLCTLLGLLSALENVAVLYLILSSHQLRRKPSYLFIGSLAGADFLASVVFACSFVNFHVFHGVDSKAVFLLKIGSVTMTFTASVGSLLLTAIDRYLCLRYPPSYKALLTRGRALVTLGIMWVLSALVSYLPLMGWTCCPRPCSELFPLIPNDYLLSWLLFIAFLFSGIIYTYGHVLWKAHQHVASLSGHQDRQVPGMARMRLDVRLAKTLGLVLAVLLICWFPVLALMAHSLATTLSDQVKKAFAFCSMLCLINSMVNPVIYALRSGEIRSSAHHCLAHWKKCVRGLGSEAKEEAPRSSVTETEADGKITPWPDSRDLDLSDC
Test: cAMP assay (LANCE TR-FRET) in CHO-K1 cells stably expressing hCB2
Format: cell-based
Conditions: text statement b297; read-out: EC50 human CB2 receptor
Description: The ability of compounds to act as agonists or inverse agonists at human CB2 and CB1 receptors (hCB2, hCB1, respectively) and at the rat CB2 receptor (rCB2) was determined by measuring changes in intracellular cAMP levels. […] Receptor mediated responses were determined by measuring changes in intracellular cAMP using LANCE cAMP detection kit (cat #AD0264, Perkin Elmer, Wellesley, Mass.) based on time-resolved fluorescence resonance energy transfer (TR-FRET). […]
pEC50: −log10 of the molar value.
ENDPOINT_NAME: pEC50

Can you share its pEC50? I mean this compound: "Cc1nnc(-c2nc(-c3ccc(F)c(F)c3)n3c2CCCCC3)o1"
< 5.00
